assay: Urinary excretion of phenolic metabolites over 48 h after one 450 mg capsule of the supplement (UHPLC-ESI-MS/MS); assay type: in vivo, human; conditions: urine, n = 10, mean ± SEM
ENDPOINT_LABEL: Urinary excretion 32–48 (h) (µg)

[[record]]
compound = "O=C1CCC(Cc2cccc(OS(=O)(=O)O)c2)O1 (centres unmarked) [compound 23]"
endpoint_label = "Urinary excretion 32–48 (h)"
assay_result = 34.61

[[record]]
compound = "O=C(O)CCc1cccc(O)c1.O=C(O)CCc1cccc(O)c1 [compound 40]"
endpoint_label = "Urinary excretion 32–48 (h)"
assay_result = 676.70

[[record]]
compound = "O=C1CCC(Cc2ccc(OS(=O)(=O)O)c(O)c2)O1 (centres unmarked) [compound 21]"
endpoint_label = "Urinary excretion 32–48 (h)"
assay_result = 389.78

[[record]]
compound = "COc1ccc(C2CC(=O)c3c(O)cc(OC4OC(C(=O)O)C(O)C(O)C4O)cc3O2)cc1O (centres unmarked) [compound 28]"
endpoint_label = "Urinary excretion 32–48 (h)"
assay_result = 22.33

[[record]]
compound = "O=C(O)[C@H]1O[C@@H](Oc2ccc3c(c2)oc(=O)c2ccccc23)[C@H](O)[C@@H](O)[C@@H]1O [compound 44]"
endpoint_label = "Urinary excretion 32–48 (h)"
assay_result = 30.99

[[record]]
compound = "O=C1CCC(Cc2cc(O)cc(OS(=O)(=O)O)c2)O1 (centres unmarked) [compound 16]"
endpoint_label = "Urinary excretion 32–48 (h)"
assay_result = 586.15

[[record]]
compound = "COc1cc(C(=O)O)cc(OC)c1O.COc1cc(C(=O)O)cc(OC)c1O [compound 39]"
endpoint_label = "Urinary excretion 32–48 (h)"
assay_result = 8.73

[[record]]
compound = "O=C(O)CCc1ccc(O)c(OS(=O)(=O)O)c1 [compound 41]"
endpoint_label = "Urinary excretion 32–48 (h)"
assay_result = 289.45

[[record]]
compound = "O=C1CCC(Cc2cc(O)cc(OC3OC(C(=O)O)C(O)C(O)C3O)c2)O1 (centres unmarked) [compound 10]"
endpoint_label = "Urinary excretion 32–48 (h)"
assay_result = 65.29

[[record]]
compound = "O=C1CCC(Cc2cccc(O[C@@H]3O[C@H](C(=O)O)[C@@H](O)[C@H](O)[C@H]3O)c2)O1 (some centres unmarked) [compound 17]"
endpoint_label = "Urinary excretion 32–48 (h)"
assay_result = 16.56

[[record]]
compound = "O=C(O)[C@H]1O[C@@H](Oc2ccc3c(c2)oc(=O)c2ccc(O)cc23)[C@H](O)[C@@H](O)[C@@H]1O [compound 43]"
endpoint_label = "Urinary excretion 32–48 (h)"
assay_result = 5.33


Data origin, for the record: paper PMC9692523
